# maps each entry to its % PfDHODH Inhibition at 10 μM
Molecular target: PfDHODH (Plasmodium falciparum, UniProt Q08210)
Sequence (Q08210 24-569): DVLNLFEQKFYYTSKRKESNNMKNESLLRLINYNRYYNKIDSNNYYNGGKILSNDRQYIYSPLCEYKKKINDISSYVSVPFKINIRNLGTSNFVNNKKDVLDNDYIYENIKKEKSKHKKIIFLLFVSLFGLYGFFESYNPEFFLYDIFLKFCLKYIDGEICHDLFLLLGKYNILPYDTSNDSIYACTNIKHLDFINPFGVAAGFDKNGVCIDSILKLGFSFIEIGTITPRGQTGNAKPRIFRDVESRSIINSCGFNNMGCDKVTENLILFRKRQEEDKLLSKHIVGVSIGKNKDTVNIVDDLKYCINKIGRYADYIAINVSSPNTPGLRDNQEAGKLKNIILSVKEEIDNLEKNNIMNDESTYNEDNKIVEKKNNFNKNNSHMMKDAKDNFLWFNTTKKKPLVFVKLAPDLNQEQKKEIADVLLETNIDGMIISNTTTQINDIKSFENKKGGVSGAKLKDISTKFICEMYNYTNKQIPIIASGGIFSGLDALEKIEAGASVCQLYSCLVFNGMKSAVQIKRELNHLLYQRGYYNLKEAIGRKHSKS
Assay: colorimetric DCIP PfDHODH enzyme inhibition assay
Type: biochemical
Conditions: 10 μM compound
Square brackets hold non-standard residues; d marks the D form. Peptide text beside a SMILES is read from it. * marks the point of attachment. ξ: configuration not given here. Cbz = O=C(OCc1ccccc1)*; ξM = CSCCC(N)C(=O)O
Give the value, in units of %, as a plain number.

Use the examples below as a reference point.
>  <compound>
C=CCN(CC(O)CO)c1ccccc1 (stereo not drawn) [NSC58504]

>  <observed>
26

$$$$
>  <compound>
COC(=O)C(CC(=O)c1ccc2ccccc2c1)OC (stereo not drawn) [NSC72405]

>  <observed>
30

$$$$
>  <compound>
CCOC(=O)C(=CNc1cccc(N(C)C)c1)C(=O)OCC [NSC336047]

>  <observed>
93

$$$$
>  <compound>
CCOC(=O)C(=CNc1cc(Cl)ccc1Cl)C(=O)OCC [NSC137121]

>  <observed>
0

$$$$
>  <compound>
CCOC(=O)C(Cc1c[nH]c2ccc([N+](=O)[O-])cc12)C(=O)OCC [NSC85231]

>  <observed>
28

$$$$
>  <compound>
CCOC(=O)/C(C#N)=C/NCCc1c[nH]c2ccccc12 [NSC343533]

>  <observed>
50

$$$$
>  <compound>
CSCCC(NC(=O)OCc1ccccc1)C(=O)NCC(=O)O (stereo not drawn) [NSC89636] (Cbz-[ξM]-Gly-OH)

>  <observed>
26

$$$$
>  <compound>
CSCCC(NC(=O)COc1ccc(Cl)cc1Cl)C(=O)O (stereo not drawn) [NSC87887]

>  <observed>
28

$$$$
>  <compound>
O=NN(CCCl)C(=O)Nc1ccc2[nH]c3ccccc3c2c1 [NSC 116824]

>  <observed>
3

$$$$
>  <compound>
CCOC(=O)C(=CNc1cccc2c(O)cccc12)C(=O)OCC [NSC340225]

>  <observed>
3

$$$$

Q. What value of % PfDHODH Inhibition at 10 μM has been reported for the following compound? CCOC(=O)c1cnc(SC)nc1Nc1ccc(Cl)cc1 [NSC165287]
A. 11

Q. Data request, read-out % PfDHODH Inhibition at 10 μM, for CCOC(=O)CSC(=S)Nc1ccc(Cl)cc1 [NSC85749]
A. 46
